Entries and their measured IC50 COX-1/COX-2 (in vitro COX-2 selectivity index) follow.
# Target under test: human recombinant COX-2 (Homo sapiens, UniProt P35354)
# Sequence (P35354 18-604): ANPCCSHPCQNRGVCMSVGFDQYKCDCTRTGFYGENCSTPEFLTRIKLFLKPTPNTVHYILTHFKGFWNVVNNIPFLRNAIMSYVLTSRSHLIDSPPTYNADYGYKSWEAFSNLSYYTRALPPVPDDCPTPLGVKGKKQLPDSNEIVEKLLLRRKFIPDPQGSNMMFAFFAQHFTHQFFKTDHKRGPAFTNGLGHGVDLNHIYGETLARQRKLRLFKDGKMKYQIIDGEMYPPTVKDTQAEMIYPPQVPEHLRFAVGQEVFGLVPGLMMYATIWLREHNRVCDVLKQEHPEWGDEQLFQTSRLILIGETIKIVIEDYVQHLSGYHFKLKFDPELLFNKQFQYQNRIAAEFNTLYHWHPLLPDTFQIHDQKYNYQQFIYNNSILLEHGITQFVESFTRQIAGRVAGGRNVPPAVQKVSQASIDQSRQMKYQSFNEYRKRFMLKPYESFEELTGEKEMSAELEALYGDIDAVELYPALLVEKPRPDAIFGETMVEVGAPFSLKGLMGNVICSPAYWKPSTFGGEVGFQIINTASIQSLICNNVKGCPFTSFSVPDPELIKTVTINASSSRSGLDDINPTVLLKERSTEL
# Assay explanation: COX-2 inhibitor screening assay kit
# Assay type: biochemical
# Experimental setup: IC50 of COX-1/COX-2
Numeric only. Scale: µM

Req: # query: IC50 COX-1/COX-2 (in vitro COX-2 selectivity index) of entry "NC1=NC(=S)NC12CCCCC2"
Resp: 55.56

Req: // IC50 COX-1/COX-2 (in vitro COX-2 selectivity index) lookup, key: "O=C1NC2(CCCCC2)c2nc3c(c(-c4ccccc4)c21)CCCC3"
Resp: 175.00

Req: Entry "Cc1cc(-c2ccccc2)c2c(n1)C1(CCCCC1)NC2=O" : reported IC50 COX-1/COX-2 (in vitro COX-2 selectivity index) = ?
Resp: 80.81

Req: Dear colleague, I am looking for the recorded IC50 COX-1/COX-2 (in vitro COX-2 selectivity index) of the following compound: O=C1CCC(=O)C2(CCCCC2)N1 [Compound 6, 1-Azaspiro[5.5]undecane-2,5-dione]
Resp: 129.21

Req: # query: IC50 COX-1/COX-2 (in vitro COX-2 selectivity index) of entry "O=C1NC2(CCCCC2)c2[nH]c(=S)nc(-c3ccccc3)c21"
Resp: 75.00

---

Catalogue of compounds with associated pIC50
# Target under test: human recombinant COX-2 (Homo sapiens, UniProt P35354)
# Assay explanation: COX-2 inhibitor screening assay kit
Interpret pIC50 as the negative base-10 log of the concentration measured in mol/L.

- Compound: "O=C1CCC(=O)C2(CCCCC2)N1 [Compound 6, 1-Azaspiro[5.5]undecane-2,5-dione]"
  Target under test: "human recombinant COX-2 (Homo sapiens, UniProt P35354)"
  pIC50: 7.05
- Compound: "O=C1NC2(CCCCC2)c2[nH]c(=S)nc(-c3ccccc3)c21 [Compound 14]"
  Target under test: "human recombinant COX-2 (Homo sapiens, UniProt P35354)"
  pIC50: 7.10
- Compound: "O=C1NC2(CCCCC2)c2nc3c(c(-c4ccccc4)c21)CCCC3 [Compound 11]"
  Target under test: "human recombinant COX-2 (Homo sapiens, UniProt P35354)"
  pIC50: 7.22
- Compound: "Cc1cc(-c2ccccc2)c2c(n1)C1(CCCCC1)NC2=O [Compound 17]"
  Target under test: "human recombinant COX-2 (Homo sapiens, UniProt P35354)"
  pIC50: 7.00

Now for another entry.
Req: Return reported pIC50; argument: NC1=NC(=S)NC12CCCCC2 [Compound 4]
Resp: 6.87

---

# Target under test: UniProt P05979
# Sequence (P05979 25-600): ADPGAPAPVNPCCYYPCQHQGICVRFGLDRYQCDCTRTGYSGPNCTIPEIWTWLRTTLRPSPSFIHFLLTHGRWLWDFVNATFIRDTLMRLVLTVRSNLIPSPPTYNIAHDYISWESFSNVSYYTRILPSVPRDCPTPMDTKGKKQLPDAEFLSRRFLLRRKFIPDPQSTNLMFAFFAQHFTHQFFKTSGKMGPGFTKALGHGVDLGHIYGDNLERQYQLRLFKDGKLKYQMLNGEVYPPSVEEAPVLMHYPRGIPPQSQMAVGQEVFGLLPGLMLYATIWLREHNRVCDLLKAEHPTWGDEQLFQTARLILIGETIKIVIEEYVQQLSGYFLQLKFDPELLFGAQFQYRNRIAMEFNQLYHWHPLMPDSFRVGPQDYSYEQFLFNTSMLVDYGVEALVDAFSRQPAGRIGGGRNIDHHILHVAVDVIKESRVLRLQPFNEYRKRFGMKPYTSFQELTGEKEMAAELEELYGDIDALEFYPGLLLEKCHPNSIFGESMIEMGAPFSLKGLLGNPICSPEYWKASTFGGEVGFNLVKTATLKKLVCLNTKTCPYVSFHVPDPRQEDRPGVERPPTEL
Recorded endpoint: pIC50
Schema: pIC50 number; meaning minus log10 of the concentration expressed in molar units.

Here is how some molecules turned out for pIC50.
- Molecule: "O=C1CCC(=O)C2(CCCCC2)N1 [Compound 6, 1-Azaspiro[5.5]undecane-2,5-dione]"
  pIC50: 4.94
- Molecule: "O=C1NC2(CCCCC2)c2nc3c(c(-c4ccccc4)c21)CCCC3 [Compound 11]"
  pIC50: 4.98
- Molecule: "NC1=NC(=S)NC12CCCCC2 [Compound 4]"
  pIC50: 5.12
- Molecule: "O=C1NC2(CCCCC2)c2[nH]c(=S)nc(-c3ccccc3)c21 [Compound 14]"
  pIC50: 5.22

Now for a further molecule.
Req: Which pIC50 reading was recorded for the molecule Cc1cc(-c2ccccc2)c2c(n1)C1(CCCCC1)NC2=O [Compound 17] ?
Resp: 5.10
